# tgt: Protein ENL (Homo sapiens)
# Sequence (Q03111 whole entry, the tested form may be a part): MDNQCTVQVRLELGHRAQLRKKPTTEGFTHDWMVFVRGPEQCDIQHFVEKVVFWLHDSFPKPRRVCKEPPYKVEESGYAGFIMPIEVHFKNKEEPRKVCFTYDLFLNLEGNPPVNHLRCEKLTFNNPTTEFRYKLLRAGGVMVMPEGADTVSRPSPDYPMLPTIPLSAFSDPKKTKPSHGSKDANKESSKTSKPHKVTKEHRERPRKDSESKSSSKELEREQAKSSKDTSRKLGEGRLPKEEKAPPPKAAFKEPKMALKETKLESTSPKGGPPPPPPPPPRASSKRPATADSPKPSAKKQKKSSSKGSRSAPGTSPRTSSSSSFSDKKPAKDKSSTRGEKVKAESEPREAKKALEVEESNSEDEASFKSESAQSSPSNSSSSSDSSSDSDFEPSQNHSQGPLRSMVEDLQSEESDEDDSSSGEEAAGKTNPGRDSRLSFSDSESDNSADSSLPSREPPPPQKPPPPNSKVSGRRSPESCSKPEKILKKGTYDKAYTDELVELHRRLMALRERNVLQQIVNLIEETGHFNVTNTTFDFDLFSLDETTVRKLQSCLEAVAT
# assay summary: Binding affinity to C-terminal 6xHis-tagged ENL YEATS domain (1 to 148 residues) (unknown origin) expressed in Escherichia coli BL21(DE3) cells assessed as dissociation constant by SPR analysis
experimental readout: Kd (nM)
Numeric answer only, unit nM assumed.

Note to self: Kd recorded for `C[C@H]1CCCN1Cc1nc2cc(NC(=O)c3ccc4c(c3)c3ccccc3c(=O)n4C)ccc2[nH]1` was 17

* * *

For each record, write down the corresponding inhibition.
# tgt: Protein ENL (Homo sapiens) (UniProt Q03111)
# Sequence (Q03111 whole entry): as the sequence (Q03111 whole entry, the tested form may be a part) above
# conditions used: dose 333.0 nM, time 45.0 min
Numeric answer only, unit % assumed.

Note to self: inhibition recorded for `CCn1cc2cc(C(=O)Nc3ccc4[nH]c(CN5CCC[C@@H]5C)nc4c3)ccc2n1` was 99.7

Note to self: inhibition recorded for `CCCCn1ncc2cc(C(=O)Nc3ccc4[nH]c(CN5CCC[C@@H]5C)nc4c3)ccc21` was 100

Note to self: inhibition recorded for `Cc1noc2ccc(C(=O)Nc3ccc4[nH]c(CN5CCC[C@@H]5C)nc4c3)cc12` was 99.3

Note to self: inhibition recorded for `C[C@H]1CCCN1Cc1nc2cc(NC(=O)c3ccc4nn(CCN)cc4c3)ccc2[nH]1` was 98.4

Note to self: inhibition recorded for `C[C@H]1CCCN1Cc1nc2cc(NC(=O)c3ccc4c(c3)c3ccccc3c(=O)n4C)ccc2[nH]1` was 100

Note to self: inhibition recorded for `Cc1ccccc1C(=O)NCCn1ncc2cc(C(=O)Nc3ccc4[nH]c(CN5CCC[C@@H]5C)nc4c3)ccc21` was 96.1

Note to self: inhibition recorded for `C[C@H]1CCCN1Cc1nc2cc(NC(=O)c3ccc4c(cnn4CCN4CCOCC4)c3)ccc2[nH]1` was 99.9

The measured values listed here are drawn from ChEMBL document CHEMBL5321209.
